# assay-target: CLK2 (Mus musculus, UniProt O35491)
# Sequence (O35491 whole entry): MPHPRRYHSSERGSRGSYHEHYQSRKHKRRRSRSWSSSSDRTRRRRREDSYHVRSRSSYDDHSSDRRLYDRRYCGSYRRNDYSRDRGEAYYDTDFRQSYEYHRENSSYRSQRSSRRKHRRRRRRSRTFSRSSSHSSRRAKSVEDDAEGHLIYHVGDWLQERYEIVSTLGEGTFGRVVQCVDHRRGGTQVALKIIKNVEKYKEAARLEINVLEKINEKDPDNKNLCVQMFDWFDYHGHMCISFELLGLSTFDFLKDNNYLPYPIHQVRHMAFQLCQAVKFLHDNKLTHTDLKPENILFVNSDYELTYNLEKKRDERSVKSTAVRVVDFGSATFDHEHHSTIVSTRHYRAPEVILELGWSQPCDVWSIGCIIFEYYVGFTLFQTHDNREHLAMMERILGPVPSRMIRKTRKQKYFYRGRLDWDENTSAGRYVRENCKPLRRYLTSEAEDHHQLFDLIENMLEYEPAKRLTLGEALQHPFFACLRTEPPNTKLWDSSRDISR
# experimental-details: Recombinant protein kinase assay, CLK2
# Type: biochemical

sample-smiles | IC50 [nM]
O=C1NC(Nc2ccccc2)=N/C1=C\c1ccc2c(c1)OCO2 | 130

###

# assay-target: UniProtKB Q9Y463
# Sequence (Q9Y463 whole entry): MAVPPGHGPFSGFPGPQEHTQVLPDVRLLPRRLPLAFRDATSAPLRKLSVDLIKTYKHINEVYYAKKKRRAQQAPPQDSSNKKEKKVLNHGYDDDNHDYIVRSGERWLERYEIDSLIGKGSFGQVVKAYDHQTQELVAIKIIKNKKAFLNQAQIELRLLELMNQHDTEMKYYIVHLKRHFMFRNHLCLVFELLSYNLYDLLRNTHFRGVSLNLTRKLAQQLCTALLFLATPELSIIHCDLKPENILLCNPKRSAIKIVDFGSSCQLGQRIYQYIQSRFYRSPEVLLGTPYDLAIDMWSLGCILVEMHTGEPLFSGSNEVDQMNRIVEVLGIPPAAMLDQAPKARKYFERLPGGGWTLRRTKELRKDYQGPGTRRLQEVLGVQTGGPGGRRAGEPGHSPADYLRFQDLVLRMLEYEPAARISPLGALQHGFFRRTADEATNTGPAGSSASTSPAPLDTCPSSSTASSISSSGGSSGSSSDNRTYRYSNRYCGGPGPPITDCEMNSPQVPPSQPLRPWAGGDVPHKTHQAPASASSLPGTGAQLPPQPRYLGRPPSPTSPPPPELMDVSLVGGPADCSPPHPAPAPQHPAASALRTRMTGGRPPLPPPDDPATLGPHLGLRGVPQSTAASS
# experimental-details: Recombinant protein kinase assay, DYRK1B
# Format: biochemical
# condition-set: 15 µM ATP
pIC50: −log10 of the molar value.
recorded-endpoint: pIC50

sample-smiles | assay-target | measurement
COc1cc(/C=C2\N=C(Nc3ccc(N4CCN(C)CC4)cc3)NC2=O)ccc1O | UniProtKB Q9Y463 | 7.70
